Value source: patent US20250092017A1

system: Ba/F3-FL-EGFR-del19-C797S; assay: CellTiter-Glo proliferation, Ba/F3-FL-EGFR-del19-C797S; type: cell-based; conditions: 72 h, proliferation, 72 hours, CellTiter-Glo; read-out: Ba/F3-FL-EGFR-del19-C797S IC50/nM
Endpoint Name: log10 IC50 (log10 of the value in nM)
Scale: decimal log of IC50, IC50 in nM.

// worked examples, log10 IC50 included
>  <Compound>
[2H]C([2H])([2H])N([C@H]1CN(c2ccc(C(C)C)c3cc(Nc4ccnc(N5CCC(OC)C(F)C5)n4)ncc23)[C@@H]1C)S(C)(=O)=O (stereo partly drawn)

>  <log10 IC50>
1.95

$$$$
>  <Compound>
CC(C)c1ccc(N2CC(CS(C)(=O)=O)C2)c2cnc(Nc3ccnc(-c4cnn(S(C)(=O)=O)c4)n3)cc12

>  <log10 IC50>
1.08

$$$$

IN: Quickly give me recorded log10 IC50 for CCS(=O)(=O)N(C)[C@H]1CN(c2ccc(C(C)C)c3cc(Nc4ccnc(N5CCC(OC)C(F)C5)n4)ncc23)[C@@H]1C (stereo partly drawn)
OUT: 2.15

IN: Look up and state reported log10 IC50 for CC(C)c1ccc(N2CC(CS(C)(=O)=O)C2)c2cnc(Nc3ccnc(-c4cnn(S(=O)(=O)C5CCOCC5)c4)n3)cc12
OUT: 2.00

IN: Answer with the recorded log10 IC50 for the compound listed here: CC(C)c1ccc(N2CC(N(C)S(C)(=O)=O)C2)c2cnc(Nc3ccnc(N4CC[C@@H](O)[C@@H](F)C4)n3)cc12 [Compound P39a]
OUT: 1.72

IN: Note log10 IC50 for the compound shown: CC(C)c1ccc(N2CC(NS(=O)(=O)c3ccoc3)C2)c2cnc(Nc3ccnc(N4CCC(O)C(F)C4)n3)cc12 (stereo not drawn)
OUT: 2.55
